test_context: in 1,4-dioxane, 328.15 K
Reported solubility (mole fraction) values for the following compounds.
readout_name: solubility (mole fraction)

> print(dat)
                                        mol  readout.value
1  COc1cc(-c2cc(-c3ccc(Cl)cc3)[nH]c(=O)c2C#N)ccc1O        0.00197
2  COc1cc(-c2cc(-c3ccc(F)cc3)[nH]c(=O)c2C#N)ccc1O        0.00211
3  COc1cc(-c2cc(-c3ccc(O)cc3)[nH]c(=O)c2C#N)ccc1O        0.00203
4  COc1ccc(-c2cc(-c3ccc(O)c(OC)c3)c(C#N)c(=O)[nH]2)cc1        0.00199
5  COc1cc(-c2cc(-c3ccc(Br)cc3)[nH]c(=O)c2C#N)ccc1O        0.00184
